- assay_target: 11-beta-hydroxysteroid dehydrogenase type 2 (Homo sapiens) (UniProt P80365)
- Sequence (P80365 whole entry): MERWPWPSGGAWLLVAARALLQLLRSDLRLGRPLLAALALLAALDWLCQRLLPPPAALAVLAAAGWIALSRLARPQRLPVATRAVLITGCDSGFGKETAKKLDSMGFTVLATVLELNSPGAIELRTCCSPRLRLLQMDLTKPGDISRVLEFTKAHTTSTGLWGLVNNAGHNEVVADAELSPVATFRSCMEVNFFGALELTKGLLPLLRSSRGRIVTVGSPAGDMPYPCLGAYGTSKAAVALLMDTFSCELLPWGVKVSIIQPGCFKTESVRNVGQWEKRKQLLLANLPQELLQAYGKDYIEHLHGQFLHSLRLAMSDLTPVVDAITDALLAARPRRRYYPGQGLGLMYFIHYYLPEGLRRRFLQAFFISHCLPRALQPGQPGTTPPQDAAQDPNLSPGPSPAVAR
- test_method_notes: Inhibition of human recombinant 11beta-HSD2 expressed in HEK293 cells assessed as reduction of […] conversion at 20 uM by scintillation counting
- Format: cell-based
Active and inactive are the calls of the source. The rule behind the calls is not given here.

compound	assay_target	Activity
C[C@@H]1CC[C@]2(C(=O)O)CC[C@]3(C)C(=CC[C@@H]4[C@@]5(C)C[C@@H](O)[C@H](OC(=O)/C=C\c6ccc(O)cc6)C(C)(C)[C@@H]5CC[C@]43C)[C@@H]2[C@]1(C)O	11-beta-hydroxysteroid dehydrogenase type 2 (Homo sapiens) (UniProt P80365)	inactive
COC(=O)[C@]12CC[C@@H](C)[C@@](C)(O)[C@H]1C1=CC[C@@H]3[C@@]4(C)C[C@@H](O)[C@H](O)C(C)(C)[C@@H]4CC[C@@]3(C)[C@]1(C)CC2	11-beta-hydroxysteroid dehydrogenase type 2 (Homo sapiens) (UniProt P80365)	inactive

---

Field: IC50. Provide a value for each of the compounds that follow.
- assay_target: 11-beta-hydroxysteroid dehydrogenase 1 (Homo sapiens)
- Sequence (P28845 whole entry): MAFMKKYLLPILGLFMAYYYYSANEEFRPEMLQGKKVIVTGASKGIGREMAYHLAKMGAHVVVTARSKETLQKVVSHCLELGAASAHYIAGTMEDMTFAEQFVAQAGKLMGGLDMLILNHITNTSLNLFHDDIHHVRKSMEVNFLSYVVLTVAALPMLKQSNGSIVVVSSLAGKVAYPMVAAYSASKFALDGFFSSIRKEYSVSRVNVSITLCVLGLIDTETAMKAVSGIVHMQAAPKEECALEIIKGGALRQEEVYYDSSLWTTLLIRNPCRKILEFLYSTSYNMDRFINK
- test_method_notes: Inhibition of human recombinant 11beta-HSD1 expressed in HEK293 cells assessed as reduction of cortisone to cortisol conversion by scintillation counting
- Assay type: cell-based
- test_context: read-out: IC50
Write the value in nM as a bare number.

Recorded IC50 of C[C@H]1[C@H](C)CC[C@]2(C(=O)O)CC[C@]3(C)C(=CC[C@@H]4[C@@]5(C)C[C@@H](O)[C@H](O)C(C)(C)[C@@H]5CC[C@]43C)[C@H]12 , please.
810

Recorded IC50 of COC(=O)[C@]12CC[C@@H](C)[C@H](C)[C@H]1C1=CC[C@@H]3[C@@]4(C)C[C@@H](O)[C@@H](O)C(C)(C)[C@@H]4CC[C@@]3(C)[C@]1(C)CC2 , please.
5200

Recorded IC50 of COC(=O)[C@]12CC[C@@H](C)[C@@](C)(O)[C@H]1C1=CC[C@@H]3[C@@]4(C)C[C@@H](O)[C@H](O)C(C)(C)[C@@H]4CC[C@@]3(C)[C@]1(C)CC2 , please.
9400

Recorded IC50 of C[C@H]1[C@H](C)CC[C@]2(C(=O)O)CC[C@]3(C)C(=CC(=O)[C@@H]4[C@@]5(C)CC[C@H](O)C(C)(C)[C@@H]5CC[C@]43C)[C@H]12 , please.
2060

Recorded IC50 of CC(=O)O[C@H]1CC[C@]2(C)[C@H]3C(=O)C=C4[C@@H]5[C@@H](C)[C@H](C)CC[C@]5(C(=O)O)CC[C@@]4(C)[C@]3(C)CC[C@H]2C1(C)C [11-OXOURSOLIC ACID ACETATE] , please.
1350
